# Tested on: RPMI-8226 leukemia
# Experiment summary: NCI tumour cell line growth inhibition, 48 h
Recorded metric: TGI

Known TGI results, listed for orientation:
COc1ccc2c(c1)C(c1ccccc1Cl)=Nc1c(n[nH]c1C)N2
> 25 µM
COc1ccc(-c2ccc(-c3ccc(-c4ccc(C(=N)N)cc4)s3)s2)cc1OC
13.4 µM
C1OC1CO[C@@H]1CO[C@H]2[C@@H]1OC[C@H]2OCC1CO1 (some centres undefined)
> 100 µM

Please examine the following record next.
## Task Notebook entry, RPMI-8226 leukemia assay: TGI of O=C1C(=O)N(c2ccc(Cl)cc2Cl)C(=O)C(=O)C1c1nc2ccccc2o1 = ?
## Result > 100 µM

###

This listing pairs compounds with measured TGI.
# System: SN12C renal
# Experiment summary: NCI tumour cell line growth inhibition, 48 h

NC(N)=NNC(=O)CCCCCCCC(=O)NN=C(N)N
> 100 µM
O=c1cc(-c2ccccc2)[nH]n1-c1nc2ccccc2[nH]1
> 100 µM
COc1ccc(C(=O)c2cc3c(OC)c(OC)c(OC)cc3[nH]2)cc1
> 100 µM
O=C1c2c(nc3ccccc3c2-c2ccccc2)CN1Nc1ccccn1
> 100 µM
C=CCSC1=N/C(=C\c2ccccc2)C(=O)N1CC=C
> 100 µM
COc1ccccc1/C=N\N=C(N/N=C/c1ccccc1OC)N/N=C/c1ccccc1OC
19.7 µM
COC(=O)C1(F)C(=O)NC(=O)NC1O (configuration not stated)
> 100 µM
C1CCC(OC2CSC2)OC1 (configuration not stated)
> 100 µM

## Task Under SN12C renal: TGI value of O=C(c1ccco1)c1c(C(F)(F)F)n([O-])c2ccccc2[n+]1=O ?
## Result 3.1 µM

## Task Give TGI (SN12C renal) of the following compound: N#C[S-].[Nd+3].c1ccc(-c2ccccn2)nc1.c1ccc(-c2ccccn2)nc1.c1ccc(-c2ccccn2)nc1
## Result > 100 µM

## Task Form field: TGI recorded for O=C1NC2(CCCCC2)C2CCCCCC12 (configuration not stated) with SN12C renal (enter value)
## Result > 100 µM

## Task Checklist item: TGI tested on SN12C renal, entry CCCCc1ccc(Nc2ncc3[nH]cnc3n2)cc1 , value?
## Result 48.9 µM

###

# Tested on: M14 melanoma
# Experiment summary: NCI tumour cell line growth inhibition, 48 h
Where a SMILES comes first, the peptide text is derived from it. The star is where a group is joined. Boc = CC(C)(C)OC(=O)*; OBn = c1ccc(CO*)cc1
TGI values for the molecules below.

Solved cases (2 shown):
COC(=O)c1cc(C#N)[nH]c1-c1ccc(C)s1
> 100 µM
C=CCSC1=N/C(=C\c2ccccc2)C(=O)N1CC=C
> 100 µM

## Task Find the recorded TGI belonging to CC(NC(=O)C(NC(=O)OC(C)(C)C)C(C)C)C(=O)N1CCCC1C(=O)NCC(=O)NC(C(=O)NCC(=O)OCc1ccccc1)C(C)C (stereo not given) (Boc-VAPGVG-OBn; configuration not given here) and report it.
## Result > 100 µM

## Task Which value of TGI has been reported for COc1ccc2c(c1)C(c1ccccc1Cl)=Nc1c(n[nH]c1C)N2 in the records?
## Result > 25 µM

## Task I have this molecule here, O=C(CCCCCCCCC(=O)N1C(=O)CC(=O)N(c2cccc(Cl)c2)C1=S)N1C(=O)CC(=O)N(c2cccc(Cl)c2)C1=S , and I need its recorded TGI.
## Result > 100 µM

###

# System: HCC-2998 colon
# Experiment summary: NCI tumour cell line growth inhibition, 48 h
compounds and their reported TGI
Express the result in µM but write the number alone.

Nc1c(C(=O)Nc2ccccc2)[n+]([O-])c2ccccc2[n+]1[O-]
32.2
CCCCCCCCCCCCCCCCCCNc1ccn(C2OC(COP(=O)(O)OCC3OC(n4cc(C)c(=O)[nH]c4=O)CC3N=[N+]=[N-])C(O)C2O)c(=O)n1 (stereo not drawn)
29.9
O=[Se](=O)c1ccccc1.O=[Se](=O)c1ccccc1.[Cu]
32.9
c1ccc2c(c1)[nH]c1cnc3c4cccnc4[nH]c3c12
34.5
COc1ccc2c(c1)N=C1CSC(c3ccccc3Cl)N1C2 (stereo not drawn)
18.1

Attention now turns to another entry.
## Task So what's the measured TGI for this one? CCc1ccc2[nH]c(O)c(-c3[nH]c4ccccc4c3N=O)c2c1
## Result 8.52

###

# Test system: HCT-15 colon
# Experiment summary: NCI tumour cell line growth inhibition, 48 h
Recorded metric: TGI (µM)
Respond with the bare value in µM.

c1ccc2c(c1)[nH]c1cnc3c4cccnc4[nH]c3c12
31.9
O=C(CCl)N1c2ccccc2Sc2ccc3ccccc3c21
2.53

## Task Recorded TGI of COc1ccc(/C=C/C(=O)Oc2cc(O)cc(O)c2)cc1 , please.
## Result 65.9

###

# Tested on: MCF7 breast
# Experiment summary: NCI tumour cell line growth inhibition, 48 h
Recorded metric: TGI

## Task Requested read-out: TGI. Entry: O=C1COc2ccc([N+](=O)[O-])cc2C(=O)C1
## Result > 10 µM

## Task Given O=C(NC1CCN(Cc2ccccc2)CC1)c1cc2nc(-c3ccc(Cl)s3)cc(C(F)(F)F)n2n1 , state its recorded TGI.
## Result > 100 µM

## Task Requested read-out: TGI. Entry: CNC(=O)c1cc(NC(=O)N(CCC#N)CCN(C(=O)N[C@@H](Cc2ccccc2)C(=O)N[C@@H](CC(C)C)C(=O)NC)c2ccccc2)ccc1OC
## Result > 100 µM

## Task Recorded TGI of Cc1ccc(SC2=CC(=O)c3nc4ccccc4c4ccnc2c34)cc1 , please.
## Result > 68.6 µM

###

# Tested on: NCI-H522 lung
# Experiment summary: NCI tumour cell line growth inhibition, 48 h
Here the recorded TGI is given for each entry.

Examples with answers:
C=C(c1ccc(C(=O)N(C)c2ccccc2N)cc1)C(C)N1C(=O)[C@H]2CCCN2C(=O)c2ccccc21 (stereo partly drawn)
> 100 µM
NS(=O)(=O)c1cccc(N=Cc2c(O)[nH]c3ccccc23)c1
> 25 µM
O=c1cc(N2CCCC2)[nH]c(=O)n1-c1cccc(C(F)(F)F)c1
> 100 µM
N#CCc1ncc(-c2ccc(C(F)(F)F)cc2)c(NC2CCCCCC2)n1
> 10 µM
CC(C)c1ccc(/C=C2\CSCC3=C2NC(=S)NC3c2ccc(C(C)C)cc2)cc1 (stereo not drawn)
> 100 µM
O=c1c(C=Nc2ccc([N+](=O)[O-])cc2)c(O)n(-c2ccccc2)c(=O)n1-c1ccccc1
> 100 µM
C1OC1CO[C@@H]1CO[C@H]2[C@@H]1OC[C@H]2OCC1CO1 (stereo partly drawn)
> 100 µM

The record that follows has no TGI shown yet.
## Task Please give the measured TGI for this compound: O=C(O)c1cc(N=Cc2ccccc2O)cc(C(=O)O)c1
## Result > 100 µM

###

# Tested on: SNB-75 CNS
# Experiment summary: NCI tumour cell line growth inhibition, 48 h
Recorded metric: TGI

O=S1(=O)c2ccccc2C(=NO)c2ccccc21
> 100 µM

## Task TGI for O=c1[nH]cnc2[nH]ncc12 ?
## Result > 4110 µM

## Task So what does the record say about TGI for CCN(c1ccc(Br)cc1)c1c(Br)c(=O)nc2ccccn12 ?
## Result > 100 µM

## Task What does the record list as TGI for CCCCOC(=O)NC(=O)c1cn(CCSCCOC(=O)NCCCCCCNC(=O)OCCSCCn2cc(C(=O)NC(=O)OCCCC)c(=O)[nH]c2=O)c(=O)[nH]c1=O ?
## Result > 100 µM

## Task // TGI lookup, key: CCSC1=C(C)N(C=NC(C)(C)C)CC1
## Result > 100 µM

## Task Fill in the blank: the reported TGI of COc1ccc(-c2c(N)n(-c3cccc(C(=O)O)c3)c(=O)c3cc([N+](=O)[O-])ccc23)cc1 is ____.
## Result > 100 µM

## Task Give the measured TGI of Cc1cc(S(=O)(=O)O)c(NC(=O)C(=O)C2C=CCS2(=O)=O)cc1Cl (stereo unspecified) .
## Result > 100 µM

## Task What value of measured TGI is listed for Cc1ccc2c(O)c(O)cc(NC(C)CCCN)c2n1 (stereo unspecified) ?
## Result > 62.7 µM

## Task Can you look up the measured TGI of COc1cc2c(cc1O)CC13CCC(=O)N1CCc1cc(OC)c(O)c-2c13 (stereo unspecified) for me?
## Result > 68.1 µM

## Task I have this compound here, O=C(O)c1ccc(N/C=C2\C(=O)c3ccccc3OC2O)cc1O (stereo unspecified) , and I need its recorded TGI.
## Result 84.3 µg/mL

## Task Which TGI is listed for O=C1c2c(n(Cc3ccccc3)c(=O)n2Cc2ccccc2)C(=O)N1Cc1ccccc1 ?
## Result > 100 µM
